# System: MEFs
# protocol: Serum-dependent necrosis (serum-induced cell death) upon amino acid or cystine starvation
# Format: cell-based, mouse
# run.conditions: total amino acid starvation in the presence of FBS, 12 hrs, GPNA 5 mM, 968 20 μM, AOA 0.5 mM, BPTES 10 μM, DFO 80 μM, CPX 10 μM, BIP 100 μM, NAC 0.2 mM, Trolox 0.2 mM, cysteine/cystine 0.2 mM, U0126 and PD0325901 10 μM
# Experimental: To induce cell death, 80%-confluent cells were washed with PBS twice, and then cultured in amino acid-free medium, with specific factors added as indicated in individual experiments. Cell death was analyzed by propidium iodide (PI) staining coupled with microscopy or flow cytometry. Alternatively, cell viability was determined using the CellTiter-Glo luminescent Cell Viability Assay (Promega). […]
Peptide text beside a SMILES is read from it. * marks the point of attachment. Cbz = O=C(OCc1ccccc1)*; CH2F = FC*
measured.attribute: inhibition of serum-dependent necrosis (cell viability / cell death)

{"columns": ["molecule", "measured"],
 "data": [
  ["c1ccc(-c2ccccn2)nc1 [BIP, 2,2-bipyridyl]", "blocked"],
  ["Cc1c(C)c2c(c(C)c1O)CCC(C)(C(=O)O)O2 (centres unmarked) [Trolox]", "effectively blocked"],
  ["O=C(Cc1ccccc1)Nc1nnc(CCSCCc2nnc(NC(=O)Cc3ccccc3)s2)s1 [BETPS]", "failed to block"],
  ["Cc1cc(C2CCCCC2)n(O)c(=O)c1 [CPX, ciclopirox olamine]", "blocked"],
  ["N[C@@H](CCC(=O)N[C@@H](CS)C(=O)NCC(=O)O)C(=O)O [GSH, glutathione]", "effectively blocked"],
  ["COC(=O)C[C@H](NC(=O)[C@H](C)NC(=O)[C@@H](NC(=O)OCc1ccccc1)C(C)C)C(=O)CF [zVAD-FMK] (Cbz-Val-Ala-Asp(OMe)-CH2F)", "failed to block"],
  ["CC(=O)N[C@@H](CS)C(=O)O [NAC, N-acetylcysteine]", "effectively blocked"]
]}
